Can you tell me α-rat koff for the items I'm about to list?
- SYSTEM_TESTED: T1, rat α-CGRP (Rattus norvegicus, UniProt P01256)
- T1 construct: rat α (1-37); host or cells: synthetic peptide
- T1 sequence (P01256 83-119 limits assumed): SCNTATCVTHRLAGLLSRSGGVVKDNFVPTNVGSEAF
- EXPERIMENT_SUMMARY: Biacore affinity of antibody G1 Fab and variants to rat α-CGRP
- Format: binding
- CONDITION_NOTES: 37° C., Fab, screening mode unless underlined
One number for each entry, in s⁻¹.

M80: G1 variant: L1 R28N,T30S; L2 L56I; H2 E54K,A57N,S58V; HC-FW3 L99T,A100V (antibody, V domains shown) VH: EVQLVESGGGLVQPGGSLRLSCAASGFTFSNYWISWVRQAPGKGLEWVAEIRSKSDNVATHYAEAVKGRFTISRDNAKNSLYLQMNSLRAEDTAVYYCTVYFDYGLAIQNYWGQGTLVTVSS VL: EIVLTQSPATLSLSPGERATLSCKASKNVSTYVSWYQQKPGQAPRLLIYGASNRYIGIPARFSGSGSGTDFTLTISSLEPEDFAVYYCSQSYNYPYTFGQGTKLEIK    0.0993
M77: G1 variant: L1 R28N,T30S; L2 G50A,L56T; H2 E54K,A57D; HC-FW3 L99T,A100V (antibody, V domains shown) VH: EVQLVESGGGLVQPGGSLRLSCAASGFTFSNYWISWVRQAPGKGLEWVAEIRSKSDDSATHYAEAVKGRFTISRDNAKNSLYLQMNSLRAEDTAVYYCTVYFDYGLAIQNYWGQGTLVTVSS VL: EIVLTQSPATLSLSPGERATLSCKASKNVSTYVSWYQQKPGQAPRLLIYAASNRYTGIPARFSGSGSGTDFTLTISSLEPEDFAVYYCSQSYNYPYTFGQGTKLEIK    0.0143
M75: G1 variant: L1 R28N,T30G; L2 L56S; H2 E54K,A57V; HC-FW3 L99T,A100V (antibody, V domains shown) VH: EVQLVESGGGLVQPGGSLRLSCAASGFTFSNYWISWVRQAPGKGLEWVAEIRSKSDVSATHYAEAVKGRFTISRDNAKNSLYLQMNSLRAEDTAVYYCTVYFDYGLAIQNYWGQGTLVTVSS VL: EIVLTQSPATLSLSPGERATLSCKASKNVGTYVSWYQQKPGQAPRLLIYGASNRYSGIPARFSGSGSGTDFTLTISSLEPEDFAVYYCSQSYNYPYTFGQGTKLEIK    0.0187
M29: G1 variant: L1 R28N,T30G; HC-FW3 L99T,A100V (antibody, V domains shown) VH: EVQLVESGGGLVQPGGSLRLSCAASGFTFSNYWISWVRQAPGKGLEWVAEIRSESDASATHYAEAVKGRFTISRDNAKNSLYLQMNSLRAEDTAVYYCTVYFDYGLAIQNYWGQGTLVTVSS VL: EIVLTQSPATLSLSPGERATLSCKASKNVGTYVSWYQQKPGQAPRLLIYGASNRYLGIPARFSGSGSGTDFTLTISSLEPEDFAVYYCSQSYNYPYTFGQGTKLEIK    0.00359
M78: G1 variant: L1 R28N,T30S; L2 G50A,L56T; H2 E54K,A57N,S58T; HC-FW3 L99T,A100V (antibody, V domains shown) VH: EVQLVESGGGLVQPGGSLRLSCAASGFTFSNYWISWVRQAPGKGLEWVAEIRSKSDNTATHYAEAVKGRFTISRDNAKNSLYLQMNSLRAEDTAVYYCTVYFDYGLAIQNYWGQGTLVTVSS VL: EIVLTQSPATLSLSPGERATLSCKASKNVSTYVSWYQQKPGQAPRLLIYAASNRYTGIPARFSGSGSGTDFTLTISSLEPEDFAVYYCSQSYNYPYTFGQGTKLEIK    0.167
M60: G1 variant: L1 R28N,T30D; L2 L56S; H2 E54K,A57N,S58R,H61F; HC-FW3 L99T,A100V (antibody, V domains shown) VH: EVQLVESGGGLVQPGGSLRLSCAASGFTFSNYWISWVRQAPGKGLEWVAEIRSKSDNRATFYAEAVKGRFTISRDNAKNSLYLQMNSLRAEDTAVYYCTVYFDYGLAIQNYWGQGTLVTVSS VL: EIVLTQSPATLSLSPGERATLSCKASKNVDTYVSWYQQKPGQAPRLLIYGASNRYSGIPARFSGSGSGTDFTLTISSLEPEDFAVYYCSQSYNYPYTFGQGTKLEIK    0.0272
M53: G1 variant: L1 R28N; L2 L56I; H2 E54K,A57N,S58G; HC-FW3 L99T,A100V (antibody, V domains shown) VH: EVQLVESGGGLVQPGGSLRLSCAASGFTFSNYWISWVRQAPGKGLEWVAEIRSKSDNGATHYAEAVKGRFTISRDNAKNSLYLQMNSLRAEDTAVYYCTVYFDYGLAIQNYWGQGTLVTVSS VL: EIVLTQSPATLSLSPGERATLSCKASKNVTTYVSWYQQKPGQAPRLLIYGASNRYIGIPARFSGSGSGTDFTLTISSLEPEDFAVYYCSQSYNYPYTFGQGTKLEIK    0.00191

Continue with the next molecule.
Q: Fill blank: measured α-rat koff of the molecule M56: G1 variant: L1 R28N,T30D; L2 L56S; H2 E54K,A57N,H61F; HC-FW3 L99T,A100V (antibody, V domains shown) VH: EVQLVESGGGLVQPGGSLRLSCAASGFTFSNYWISWVRQAPGKGLEWVAEIRSKSDNSATFYAEAVKGRFTISRDNAKNSLYLQMNSLRAEDTAVYYCTVYFDYGLAIQNYWGQGTLVTVSS VL: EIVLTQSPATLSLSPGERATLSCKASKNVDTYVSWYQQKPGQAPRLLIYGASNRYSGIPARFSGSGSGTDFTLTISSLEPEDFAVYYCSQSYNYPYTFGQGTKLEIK is ____.
Ans: 0.00935
